The reader will find reported interaction score values listed item by item below.
- system under test: T1, 4H2725-AA
- T1 chain: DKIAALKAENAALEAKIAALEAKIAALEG
- assay method text: two-hybrid library CCmax;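 further: natural log of median RNA to DNA barcode read ratio; higher means stronger binding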
- measurement context: mean of both orientations
Write no unit; give the number alone.

Use these answered entries as a reference point.
binder	interaction score
DENAALEAKIAALEAENAALKAKIAALKG [4H1310-AA]	-1.12
DENAALKAKIAALKAENAALEAKIAALEG [4H1877-AA]	-0.897
DKIAALEAENAALKAEIAALKAKIAALEG [4H2253-AA]	-0.468
DKIAALKAENAALEAEIAALKAEIAALKG [4H2698-AA]	-1.02
DENAALKAEIAALEAKIAALKAENAALEG [4H1579-AA]	-1.31

# interaction score (binder: DKIAALEAKIAALEAENAALKAEIAALKG [4H2330-AA] ) is -1.57

Measured interaction score of DENAALKAEIAALKAENAALKAEIAALKG [4H1626-AA] : -1.77
